Provenance of the data: PubChem BioAssay (NCI)

# Tested on: OVCAR-8 ovarian
# Protocol Details: NCI tumour cell line growth inhibition, 48 h
Where a SMILES comes first, the peptide text is derived from it. [ ]: non-standard residue; d: D form. The star is where a group is joined. ξ: configuration not given here. NMeY = CN[C@@H](Cc1ccc(O)cc1)C(=O)O; Cbz = O=C(OCc1ccccc1)*; ξA = CC(N)C(=O)O

Compound | TGI
O=C1c2cccnc2C(=O)c2c1c(C(=O)OCCCN1CCOCC1)c1ccccn21 | 1.92 µM
C/C(=N\N=C(N)N)c1c(C(=O)OCCCCCCOC(=O)c2nc3sccn3c2/C(C)=N/N=C(N)N)nc2sccn12 | > 100 µM
CCOC(=O)c1c2c(n(C)c1-c1ccccc1)C(=O)C(C)=CC2=O | 15.4 µM
O=CNc1cccc2c3c([nH]c12)CCCCCC3 | > 100 µM
O=C1OCC(C(=O)c2cccc(O)c2)C1=O (centres undefined) | > 100 µM
COc1cccc(-c2nn(-c3ccccc3)cc2-c2ccnc(NCCNC(=O)Nc3ccc(Cl)c(Cl)c3)c2)c1 | 11.2 µM
Cc1ccc2ccccc2c1CC1S(=O)(=O)OCCOS1(=O)=O | 37.1 µM
c1ccc(SCCCC(Sc2ccccc2)Sc2ccccc2)cc1 | > 100 µM
CN(C)c1ccc(C(=NNC(=O)c2cc3ccccc3[nH]2)c2ccc(N(C)C)cc2)cc1 | > 100 µM
CCC1OCCN1C(C)C (centres undefined) | > 100 µM
COc1ccccc1C(=O)c1cnc(NC2CCN(S(C)(=O)=O)CC2)nc1N | > 25 µM
O=C(Oc1c(I)ccccc1=O)c1ccc([N+](=O)[O-])cc1 | 65.1 µM
COc1ccc([Se]c2ccc(OC)cc2OC)c(OC)c1 | > 100 µM
CC1CN=C(c2cccc(OCc3ccc(COc4cccc(C5=NCC(C)N5)c4)cc3)c2)N1 (centres undefined) | > 100 µM
Cc1ccc(C2=Nc3c(N)ncnc3NC(c3cccc(Nc4ccnc5cc(C(F)(F)F)ccc45)c3)C2)cc1 (centres undefined) | 76.7 µM
C=C1C(=O)O[C@H]2C1[C@H](OC(=O)/C(C)=C\COC(C)=O)C[C@]1(CO1)[C@@H]1[C@H](O)[C@H]3O[C@@]3(C)[C@@H]12 (some centres undefined) | 99.5 µM
CCCCc1ccc2[n+](c1)C(C(=O)OCC)=PC2 (centres undefined) | > 100 µM
CC(C)=CC(=O)O[C@@H]1CC(C)(C)CC2C3=CCC4[C@]56CC[C@](O)(OC5)C(C)(C)C6CC[C@@]4(C)C3(C)CC[C@]21C(=O)O (some centres undefined) | > 100 µM
COc1ccc(C[C@@H](C(=O)NCC(N)=O)N(C)C(=O)[C@@H]2CCCN2C(=O)[C@H](CC(C)C)NC(=O)C(C)NC(=O)OCc2ccccc2)cc1 (some centres undefined) (Cbz-[ξA]LP[NMeY](Me)G-NH2) | > 100 µM
